Entry source: PubChem BioAssay

test description: viability loss with induced miR-34 in A549 – imaging, A549 dox-inducible miR-34, nuclei and caspase counts, primary screen (AID 1347080)
assay setup: A549 miR-34 inducible, Hoechst nuclei count, 48 h; stronger effect = lower value; cell number ratio, induced over uninduced
API: label(entry) gives y if the entry's fold change is strictly smaller than 1; on equality or larger values it gives n.

compound | answer label
CCCCCCCC/C=C\CCCCCCCCCCCCCC(=O)NCCS(=O)(=O)O | y
Cc1cnc(-c2cnc(NCCNc3ccc(C#N)cn3)nc2-c2ccc(Cl)cc2Cl)[nH]1 | y
CC/C=C/C[C@H](O)/C=C/[C@H]1[C@H](O)CC(=O)[C@@H]1C/C=C\CCCC(=O)O | y
CC1Nc2ccc(Cl)cc2S(=O)(=O)N1 (stereo not given) | y
CC(C)[C@H](CO)Nc1nc(Nc2cc(N)cc(Cl)c2)c2ncn(C(C)C)c2n1 | n
CCCCC[C@H](O)/C=C/[C@@H]1c2cc(CCCCC(=O)O)n(-c3ccccc3)c2C[C@H]1O | y
CC(=O)N(O)[C@@H]1c2cc(C#N)ccc2OC(C)(C)[C@H]1O | y
Cc1ccccc1N1CCN(S(=O)(=O)CC23CCC(C[C@@H]2NC(=O)[C@@H](N)CCS(C)(=O)=O)C3(C)C)CC1 (stereo not given in full) | y
COc1cc2c(cc1OC)C(c1ccc(N)cc1)=NNC(=O)C2 | n

###

test description: viability loss in pontine glioma line – cell-based, SU-DIPG-XXV, MIPE5.0, CellTiter-Glo, qHTS, dose response (AID 1347065);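 note: cells exposed to compound for 48 hours before ATP readout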
assay setup: CellTiter-Glo ATP luminescence
Records with an inconclusive call do not appear. Activity calls are given as the source filed them. No cut-off is given here; in the data, nearly all actives have AC50 up to about 26 µM.
Outcome codes: t (active), f (inactive)

molecule | answer label
CN(C)C[C@@H]1CCn2cc(c3ccccc32)C2=C(C(=O)NC2=O)c2cn(c3ccccc23)CCO1 | t
CCCCC(C)(C)[C@H](O)/C=C/[C@H]1[C@H](O)CC(=O)[C@@H]1C/C=C\CCCC(=O)O | t
N#Cc1ccnc(N2C(=O)CC[C@H]2C(=O)N(c2cncc(F)c2)[C@H](C(=O)NC2CC(F)(F)C2)c2ccccc2Cl)c1 | f
COc1cccc(OC)c1-c1cc(C(=O)NC2(C(=O)O)C3CC4CC(C3)CC2C4)nn1-c1ccnc2cc(Cl)ccc12 (centres undefined) | t
C[C@]12CCC3=C4CCC(=O)C=C4CC[C@H]3[C@@H]1CC[C@@]2(O)CC#N | f
COc1ccc(-n2cnc3cc(C(=O)N4CCCCC4)ccc32)cc1 | f
Cc1cnc(Nc2ccc(N3CCN(C)CC3)cc2)nc1Nc1cccc(S(=O)(=O)NC(C)(C)C)c1 | t
C[C@@H]1CC[C@@]2(OC1)OC1CC3C4CC=C5CC(O)CCC5(C)C4CCC3(C)C1[C@@H]2C (some centres undefined) | f
COCCOc1nc(-c2ccc(Cl)c(Cl)c2)n(-c2ccc(NC(=O)CCl)cc2)n1 | t

###

test description: viability loss with induced miR-34 in A549 – imaging, A549 dox-inducible miR-34, nuclei and caspase counts, primary screen (AID 1347080)
assay setup: A549 miR-34 inducible, Hoechst nuclei count, 48 h; measured here: total cells without miR-34 induction
Where a SMILES comes first, the peptide text is derived from it. The star is where a group is joined. Cbz = O=C(OCc1ccccc1)*

compound | cell count
CCCCC[C@](C)(O)/C=C/[C@@H]1[C@@H](C/C=C\CCCC(=O)OC)[C@@H](O)C[C@H]1O | 6490
COc1cc(N2CCC(N(C)C)CC2)ccc1Nc1ncc(Cl)c(Nc2ccccc2P(C)(C)=O)n1 | 1580
CC1=C(C(=O)OCCN(Cc2ccccc2)c2ccccc2)C(c2cccc([N+](=O)[O-])c2)C(P2(=O)OCC(C)(C)CO2)=C(C)N1 (centres undefined) | 4830
Cn1c(N2CCCCS2(=O)=O)nc(C(=O)NCc2ccc(F)cc2)c(O)c1=O | 8040
CN1CCN(C2=Cc3ccccc3Oc3ccc(Cl)cc32)CC1 | 7060
Nc1cc(C(F)(F)F)c(-c2cc(N3CCOCC3)nc(N3CCOCC3)n2)cn1 | 1810
O=C(O)/C=C1\CCCc2ccccc2C1O (centres undefined) | 9660
CCCCC[C@H](O)CC[C@@H]1[C@@H](C/C=C\CCCC(=O)O)[C@@H](O)C[C@H]1O | 6610
CC(C)C[C@@H](C=O)NC(=O)[C@H](CC(C)C)NC(=O)[C@H](CC(C)C)NC(=O)OCc1ccccc1 (Cbz-Leu-Leu-Leu-aldehyde) | 595
